- testTarget: T1, EsCas13d, nuclease-dead (Eubacterium siraeum, UniProt B0MS50, R295A;H300A;R849A;H854A)
- T1 sequence: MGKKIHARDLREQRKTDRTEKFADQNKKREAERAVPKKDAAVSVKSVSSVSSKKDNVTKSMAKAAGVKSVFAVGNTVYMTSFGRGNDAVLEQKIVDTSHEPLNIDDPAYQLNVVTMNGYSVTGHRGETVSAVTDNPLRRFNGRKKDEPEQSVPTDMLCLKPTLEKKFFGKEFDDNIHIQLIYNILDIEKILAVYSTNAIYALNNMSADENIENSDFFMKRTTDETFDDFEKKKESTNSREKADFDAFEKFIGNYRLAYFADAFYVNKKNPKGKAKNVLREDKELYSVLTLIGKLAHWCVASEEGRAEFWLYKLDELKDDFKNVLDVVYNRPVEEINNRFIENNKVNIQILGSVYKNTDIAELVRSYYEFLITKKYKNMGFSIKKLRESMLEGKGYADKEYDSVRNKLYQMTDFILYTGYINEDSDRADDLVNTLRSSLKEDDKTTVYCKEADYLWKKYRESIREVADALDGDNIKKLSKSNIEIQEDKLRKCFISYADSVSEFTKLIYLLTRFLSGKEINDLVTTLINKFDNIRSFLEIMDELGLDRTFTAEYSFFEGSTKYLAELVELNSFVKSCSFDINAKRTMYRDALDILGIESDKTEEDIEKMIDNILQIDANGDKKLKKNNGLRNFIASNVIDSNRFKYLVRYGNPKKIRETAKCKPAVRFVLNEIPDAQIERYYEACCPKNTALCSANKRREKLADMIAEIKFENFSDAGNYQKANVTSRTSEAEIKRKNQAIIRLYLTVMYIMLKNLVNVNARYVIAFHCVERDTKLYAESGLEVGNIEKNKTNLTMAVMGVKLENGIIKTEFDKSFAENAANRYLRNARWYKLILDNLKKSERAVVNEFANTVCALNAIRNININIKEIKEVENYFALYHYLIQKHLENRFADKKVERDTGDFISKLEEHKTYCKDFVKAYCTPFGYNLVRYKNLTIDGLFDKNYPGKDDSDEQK
- assayName: crRNA (strand 1, pre-loaded); Mg2+; 40 mM Tris-HCl pH 7.5, 150 mM NaCl, 6 mM MgCl2, 1 mM DTT, 0.1% Tween-20, 0.2 mg/ml BSA; 25 C; 10 min per concentration, then washed
- measurementSetup: tags: His6-TwinStrep-SUMO cleaved; N-terminal SNAP kept (SNAP-Surface 488); label: 3' end held by stalled T7 RNA polymerase
readoutType: pKd
Scale: pKd equals -log10([C]), with [C] in mol/L.

Reference set (3 entries):
binder="target 1 MT 5'PFS UUG 3'PFS CUG (mixed) RNA 1: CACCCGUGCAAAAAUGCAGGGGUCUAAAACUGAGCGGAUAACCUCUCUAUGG RNA 2: GGGAAUGGAUCCACAUCUACGAAUUCUUGCCAUAGAGAGGUUAUCCGCUCACUGAGAUCGGAAGAGCACACGU" readoutvalue=7.63
binder="target 1 C2A,U19A (mixed) RNA 1: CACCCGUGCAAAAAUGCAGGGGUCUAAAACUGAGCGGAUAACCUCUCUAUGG RNA 2: GGGAAUGGAUCCACAUCUACGAAUUCGUACCAAAGAGAGGUUAUCCGCUAACCGAGAUCGGAAGAGCACACGU" readoutvalue=7.49
binder="target 1 insU 3' of 14,insG 3' of 4 (mixed) RNA 1: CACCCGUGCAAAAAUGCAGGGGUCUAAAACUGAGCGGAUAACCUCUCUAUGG RNA 2: GGGAAUGGAUCCACAUCUACGAAUUCGUACCAUAGAGAUGGUUAUCCGCGUCACCGAGAUCGGAAGAGCACACGU" readoutvalue=7.50

// switching to the query binder
What value of pKd has been reported for the following binder? target 1 MT 5'PFS UUA 3'PFS UAA (mixed) RNA 1: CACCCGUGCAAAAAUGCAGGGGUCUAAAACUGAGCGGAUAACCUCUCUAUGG RNA 2: GGGAAUGGAUCCACAUCUACGAAUUCUUACCAUAGAGAGGUUAUCCGCUCAUAAAGAUCGGAAGAGCACACGU
7.67
